test system: C5b-9 membrane-attack complex (MAC) formation via the alternative pathway; experiment: Alternative pathway-dependent MAC assay on LPS-coated wells (ELISA); format: biochemical, human; conditions: peptides; ELISA as described in Example 3; read-out: IC50, inhibition of MAC formation
No end group written: not given here.
endpoint.label: pIC50
Scale: negative log10 of molar concentration, which is what pIC50 denotes.

{"substance": "Ac-RYRRCVGWNG (N-terminus assumed) [peptide 3]", "pIC50": 3.62}

Shift focus to the following entry.
Entry Ac-CRSPRWSLWS (N-terminus assumed) [peptide 2] has what pIC50?
3.47

// provenance: patent US20030198636A1
